Known OD450 at 0.0001 nM of a selection of binders
target system: T1, monkey GPC3-His protein (monkey)
T1 construct: Bought recombinant protein; also called monkey GPC3 protein
assay procedure: ELISA, monkey GPC3-His coated;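 further: Plate-coated antigen at 1 µg/mL, antibody binding 2 h at 37 °C, detected with HRP-labeled secondary antibody and TMB, absorbance at 450 nm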
Express the result in OD450 but write the number alone.

binder: F1.3.9 (antibody, human IgG1, kappa, V domains shown, Human-murine chimeric antibody) VH: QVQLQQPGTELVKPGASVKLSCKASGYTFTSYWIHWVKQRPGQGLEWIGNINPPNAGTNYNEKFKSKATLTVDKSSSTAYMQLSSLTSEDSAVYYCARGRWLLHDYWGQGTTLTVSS VL: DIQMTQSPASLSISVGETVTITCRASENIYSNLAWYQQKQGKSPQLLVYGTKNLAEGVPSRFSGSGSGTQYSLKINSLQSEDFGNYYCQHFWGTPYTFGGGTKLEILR
OD450 at 0.0001 nM (OD450): 0.04

binder: F4.21.16 (antibody, human IgG1, kappa, V domains shown, Human-murine chimeric antibody) VH: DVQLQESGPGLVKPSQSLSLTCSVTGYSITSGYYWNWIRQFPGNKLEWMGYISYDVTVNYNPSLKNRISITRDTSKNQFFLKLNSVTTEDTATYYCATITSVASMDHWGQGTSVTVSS VL: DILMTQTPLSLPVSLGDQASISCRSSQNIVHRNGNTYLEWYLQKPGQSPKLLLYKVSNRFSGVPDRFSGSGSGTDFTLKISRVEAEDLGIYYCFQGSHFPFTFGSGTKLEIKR
OD450 at 0.0001 nM (OD450): 0.04

Let us move to another entry and its OD450 at 0.0001 nM.
Problem: Param item = F2.55.11 (antibody, human IgG1, kappa, V domains shown, Human-murine chimeric antibody) VH: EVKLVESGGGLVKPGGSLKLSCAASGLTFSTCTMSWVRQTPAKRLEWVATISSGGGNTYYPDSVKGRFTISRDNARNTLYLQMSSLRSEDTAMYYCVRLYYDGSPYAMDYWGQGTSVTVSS VL: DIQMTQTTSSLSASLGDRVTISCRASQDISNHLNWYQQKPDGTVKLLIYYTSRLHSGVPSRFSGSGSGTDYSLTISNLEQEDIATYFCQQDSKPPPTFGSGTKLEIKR ; retrieve measured OD450 at 0.0001 nM.
Solution: 0.05

Cited source for all entries: patent US20260116991A1
